# studySystem: alpha2A (h) (Homo sapiens)
# Sequence (P08913 whole entry): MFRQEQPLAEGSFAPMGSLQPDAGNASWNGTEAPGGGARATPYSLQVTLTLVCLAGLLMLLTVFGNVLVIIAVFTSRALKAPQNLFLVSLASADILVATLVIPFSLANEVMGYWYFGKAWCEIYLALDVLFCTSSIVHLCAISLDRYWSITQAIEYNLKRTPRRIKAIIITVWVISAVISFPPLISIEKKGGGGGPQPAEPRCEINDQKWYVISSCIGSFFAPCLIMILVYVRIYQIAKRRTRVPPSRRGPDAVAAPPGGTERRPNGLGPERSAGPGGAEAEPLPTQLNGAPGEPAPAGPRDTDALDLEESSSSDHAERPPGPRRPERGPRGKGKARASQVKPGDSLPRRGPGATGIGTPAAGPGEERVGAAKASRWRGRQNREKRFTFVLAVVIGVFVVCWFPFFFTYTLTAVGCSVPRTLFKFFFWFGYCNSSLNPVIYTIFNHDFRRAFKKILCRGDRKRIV
# experimentNotes: alpha2A (h) (antagonist radioligand)
# details: read-out: Inhibition alpha2A (h) (antagonist radioligand)
recordedEndpoint: inhibition at 10 µM (%)

INSERT INTO assay_data (smilestext, studysystem, datavalue) VALUES
  ('O=C(OC(C(F)(F)F)C(F)(F)F)N1CC2(CC(CC3=C4C=CC(c5ccc[nH]5)=[N+]4[B-](F)(F)n4cccc43)C2)C1', 'alpha2A (h) (Homo sapiens)', -0.9),
  ('O=C(OC(C(F)(F)F)C(F)(F)F)N1CC2(CC(CC3=C4C=CC=[N+]4[B-](F)(F)n4cccc43)C2)C1', 'alpha2A (h) (Homo sapiens)', -2.2),
  ('O=C(O[C@H](CO)C(F)(F)F)N1CC2(CC(CC3=C4C=CC=[N+]4[B-](F)(F)n4cccc43)C2)C1', 'alpha2A (h) (Homo sapiens)', 11.7),
  ('O=C(N1CC2(CC(CC3=C4C=CC=[N+]4[B-](F)(F)n4cccc43)C2)C1)N1CC2(CC(n3cnc(C4CC4)n3)C2)C1', 'alpha2A (h) (Homo sapiens)', -8.9);
